# details: in ethyl acetate, 313.15 K

substance.smiles	solubility (mole fraction)
CSc1nc2cc(Oc3cccc(Cl)c3Cl)c(Cl)cc2[nH]1	0.0306

---

# details: in acetonitrile, 278.15 K

substance.smiles	solubility (mole fraction)
CSc1nc2cc(Oc3cccc(Cl)c3Cl)c(Cl)cc2[nH]1	0.000629

---

# details: in acetonitrile, 293.15 K
measured.quantity: solubility (mole fraction)

substance.smiles	readout.number
CSc1nc2cc(Oc3cccc(Cl)c3Cl)c(Cl)cc2[nH]1	0.00136

---

# details: in isopropanol, 283.15 K
measured.quantity: solubility (mole fraction)

substance.smiles	result
CSc1nc2cc(Oc3cccc(Cl)c3Cl)c(Cl)cc2[nH]1	0.00272

---

# details: in 1,2-dichloroethane, 283.15 K

substance.smiles	solubility (mole fraction)
CSc1nc2cc(Oc3cccc(Cl)c3Cl)c(Cl)cc2[nH]1	0.00187

---

# details: in ethyl formate, 293.15 K

substance.smiles	solubility (mole fraction)
CSc1nc2cc(Oc3cccc(Cl)c3Cl)c(Cl)cc2[nH]1	0.00982

---

# details: in ethylene glycol, 318.15 K

substance.smiles	solubility (mole fraction)
CSc1nc2cc(Oc3cccc(Cl)c3Cl)c(Cl)cc2[nH]1	0.00231

---

# details: in n-butyl acetate, 283.15 K

substance.smiles	solubility (mole fraction)
CSc1nc2cc(Oc3cccc(Cl)c3Cl)c(Cl)cc2[nH]1	0.0181

---

# details: in ethyl acetate, 278.15 K

substance.smiles	solubility (mole fraction)
CSc1nc2cc(Oc3cccc(Cl)c3Cl)c(Cl)cc2[nH]1	0.0106

---

# details: in n-propanol, 313.15 K
measured.quantity: solubility (mole fraction)

substance.smiles	readout.number
CSc1nc2cc(Oc3cccc(Cl)c3Cl)c(Cl)cc2[nH]1	0.0262

---

# details: in 1,2-dichloroethane, 313.15 K
measured.quantity: solubility (mole fraction)

substance.smiles	measured.quantity	result
CSc1nc2cc(Oc3cccc(Cl)c3Cl)c(Cl)cc2[nH]1	solubility (mole fraction)	0.0063

---

# details: in 1,2-dichloroethane, 308.15 K
measured.quantity: solubility (mole fraction)

substance.smiles	measured.quantity	result
CSc1nc2cc(Oc3cccc(Cl)c3Cl)c(Cl)cc2[nH]1	solubility (mole fraction)	0.00522

---

# details: in n-butyl acetate, 293.15 K

substance.smiles	solubility (mole fraction)
CSc1nc2cc(Oc3cccc(Cl)c3Cl)c(Cl)cc2[nH]1	0.0232

---

# details: in acetonitrile, 318.15 K

substance.smiles	solubility (mole fraction)
CSc1nc2cc(Oc3cccc(Cl)c3Cl)c(Cl)cc2[nH]1	0.00396

---

# details: in ethanol, 313.15 K
measured.quantity: solubility (mole fraction)

substance.smiles	readout.number
CSc1nc2cc(Oc3cccc(Cl)c3Cl)c(Cl)cc2[nH]1	0.0244

---

# details: in acetonitrile, 283.15 K
measured.quantity: solubility (mole fraction)

substance.smiles	result
CSc1nc2cc(Oc3cccc(Cl)c3Cl)c(Cl)cc2[nH]1	0.000811

---

# details: in isopropanol, 303.15 K

substance.smiles	solubility (mole fraction)
CSc1nc2cc(Oc3cccc(Cl)c3Cl)c(Cl)cc2[nH]1	0.00619

---

# details: in ethanol, 298.15 K
measured.quantity: solubility (mole fraction)

substance.smiles	result
CSc1nc2cc(Oc3cccc(Cl)c3Cl)c(Cl)cc2[nH]1	0.0151

---

# details: in ethylene glycol, 278.15 K

substance.smiles	solubility (mole fraction)
CSc1nc2cc(Oc3cccc(Cl)c3Cl)c(Cl)cc2[nH]1	0.000323

---

# details: in ethanol, 283.15 K

substance.smiles	solubility (mole fraction)
CSc1nc2cc(Oc3cccc(Cl)c3Cl)c(Cl)cc2[nH]1	0.00878

---

# details: in ethyl acetate, 288.15 K
measured.quantity: solubility (mole fraction)

substance.smiles	measured.quantity	result
CSc1nc2cc(Oc3cccc(Cl)c3Cl)c(Cl)cc2[nH]1	solubility (mole fraction)	0.0147

---

# details: in n-pentyl acetate, 283.15 K

substance.smiles	solubility (mole fraction)
CSc1nc2cc(Oc3cccc(Cl)c3Cl)c(Cl)cc2[nH]1	0.0214

---

# details: in n-pentyl acetate, 303.15 K

substance.smiles	solubility (mole fraction)
CSc1nc2cc(Oc3cccc(Cl)c3Cl)c(Cl)cc2[nH]1	0.0361

---

# details: in ethanol, 293.15 K
measured.quantity: solubility (mole fraction)

substance.smiles	readout.number
CSc1nc2cc(Oc3cccc(Cl)c3Cl)c(Cl)cc2[nH]1	0.0126

---

# details: in n-butyl acetate, 278.15 K

substance.smiles	solubility (mole fraction)
CSc1nc2cc(Oc3cccc(Cl)c3Cl)c(Cl)cc2[nH]1	0.0159

---

# details: in isopropanol, 298.15 K
measured.quantity: solubility (mole fraction)

substance.smiles	measured.quantity	readout.number
CSc1nc2cc(Oc3cccc(Cl)c3Cl)c(Cl)cc2[nH]1	solubility (mole fraction)	0.00511

---

# details: in ethyl acetate, 293.15 K

substance.smiles	solubility (mole fraction)
CSc1nc2cc(Oc3cccc(Cl)c3Cl)c(Cl)cc2[nH]1	0.0173

---

# details: in n-propanol, 288.15 K

substance.smiles	solubility (mole fraction)
CSc1nc2cc(Oc3cccc(Cl)c3Cl)c(Cl)cc2[nH]1	0.0125

---

# details: in n-propanol, 298.15 K

substance.smiles	solubility (mole fraction)
CSc1nc2cc(Oc3cccc(Cl)c3Cl)c(Cl)cc2[nH]1	0.017

---

# details: in ethyl formate, 283.15 K

substance.smiles	solubility (mole fraction)
CSc1nc2cc(Oc3cccc(Cl)c3Cl)c(Cl)cc2[nH]1	0.00632

---

# details: in 1,2-dichloroethane, 288.15 K

substance.smiles	solubility (mole fraction)
CSc1nc2cc(Oc3cccc(Cl)c3Cl)c(Cl)cc2[nH]1	0.00234

---

# details: in n-propyl acetate, 303.15 K
measured.quantity: solubility (mole fraction)

substance.smiles	result
CSc1nc2cc(Oc3cccc(Cl)c3Cl)c(Cl)cc2[nH]1	0.0258

---

# details: in isopropanol, 318.15 K
measured.quantity: solubility (mole fraction)

substance.smiles	measured.quantity	readout.number
CSc1nc2cc(Oc3cccc(Cl)c3Cl)c(Cl)cc2[nH]1	solubility (mole fraction)	0.0112

---

# details: in acetonitrile, 298.15 K

substance.smiles	solubility (mole fraction)
CSc1nc2cc(Oc3cccc(Cl)c3Cl)c(Cl)cc2[nH]1	0.00164

---

# details: in n-butanol, 303.15 K

substance.smiles	solubility (mole fraction)
CSc1nc2cc(Oc3cccc(Cl)c3Cl)c(Cl)cc2[nH]1	0.0366

---

# details: in methanol, 313.15 K
measured.quantity: solubility (mole fraction)

substance.smiles	readout.number
CSc1nc2cc(Oc3cccc(Cl)c3Cl)c(Cl)cc2[nH]1	0.0144

---

# details: in methanol, 303.15 K

substance.smiles	solubility (mole fraction)
CSc1nc2cc(Oc3cccc(Cl)c3Cl)c(Cl)cc2[nH]1	0.0101

---

# details: in n-propanol, 308.15 K

substance.smiles	solubility (mole fraction)
CSc1nc2cc(Oc3cccc(Cl)c3Cl)c(Cl)cc2[nH]1	0.0229

---

# details: in isobutanol, 318.15 K

substance.smiles	solubility (mole fraction)
CSc1nc2cc(Oc3cccc(Cl)c3Cl)c(Cl)cc2[nH]1	0.023

---

# details: in n-propyl acetate, 293.15 K
measured.quantity: solubility (mole fraction)

substance.smiles	readout.number
CSc1nc2cc(Oc3cccc(Cl)c3Cl)c(Cl)cc2[nH]1	0.0196

---

# details: in n-butanol, 313.15 K

substance.smiles	solubility (mole fraction)
CSc1nc2cc(Oc3cccc(Cl)c3Cl)c(Cl)cc2[nH]1	0.0435

---

# details: in 1,2-dichloroethane, 278.15 K
measured.quantity: solubility (mole fraction)

substance.smiles	measured.quantity	readout.number
CSc1nc2cc(Oc3cccc(Cl)c3Cl)c(Cl)cc2[nH]1	solubility (mole fraction)	0.00153

---

# details: in ethyl formate, 278.15 K
measured.quantity: solubility (mole fraction)

substance.smiles	measured.quantity	readout.number
CSc1nc2cc(Oc3cccc(Cl)c3Cl)c(Cl)cc2[nH]1	solubility (mole fraction)	0.00501

---

# details: in n-propyl acetate, 283.15 K

substance.smiles	solubility (mole fraction)
CSc1nc2cc(Oc3cccc(Cl)c3Cl)c(Cl)cc2[nH]1	0.0146

---

# details: in methanol, 298.15 K
measured.quantity: solubility (mole fraction)

substance.smiles	measured.quantity	result
CSc1nc2cc(Oc3cccc(Cl)c3Cl)c(Cl)cc2[nH]1	solubility (mole fraction)	0.00841

---

# details: in ethylene glycol, 283.15 K

substance.smiles	solubility (mole fraction)
CSc1nc2cc(Oc3cccc(Cl)c3Cl)c(Cl)cc2[nH]1	0.000439

---

# details: in n-propanol, 278.15 K

substance.smiles	solubility (mole fraction)
CSc1nc2cc(Oc3cccc(Cl)c3Cl)c(Cl)cc2[nH]1	0.00915

---

# details: in methanol, 278.15 K
measured.quantity: solubility (mole fraction)

substance.smiles	measured.quantity	readout.number
CSc1nc2cc(Oc3cccc(Cl)c3Cl)c(Cl)cc2[nH]1	solubility (mole fraction)	0.00373
